# particulars: 323.15 K; 4000 kPa; Liquid
parameter: mass density (kg/m3)
Give bare numbers, in kg/m3.

compound: CCCCCCCCCCCCCC[P+](CCCCCC)(CCCCCC)CCCCCC.N#C[N-]C#N [tetradecyl(trihexyl)phosphonium dicyanamide]
mass density [kg/m3]: 886.5
--
compound: CCCCCCCCCCCCCC[P+](CCCCCC)(CCCCCC)CCCCCC.[Cl-] [trihexyl(tetradecyl)phosphonium chloride]
mass density [kg/m3]: 876.9
--
compound: CCCCCCCCCCCCCC[P+](CCCCCC)(CCCCCC)CCCCCC.CS(=O)(=O)[O-] [trihexyltetradecylphosphonium methanesulfonate]
mass density [kg/m3]: 915.9

Hi, could you look up mass density for each item in my list?
1. CCCCCCCCCCCCCC[P+](CCCCCC)(CCCCCC)CCCCCC.[Br-] [tetradecyltrihexylphosphonium bromide]
2. CCCCCCCCCCCCCC[P+](CCCCCC)(CCCCCC)CCCCCC.O=S(=O)([N-]S(=O)(=O)C(F)(F)F)C(F)(F)F

Result block:
[940.3, 1050.7]

----------
# particulars: 323.15 K; 2000 kPa; Liquid
parameter: mass density (kg/m3)
Answers are plain numbers, in kg/m3.

Hi, could you look up mass density for each item in my list?
1. CCCCCCCCCCCCCC[P+](CCCCCC)(CCCCCC)CCCCCC.O=S(=O)([N-]S(=O)(=O)C(F)(F)F)C(F)(F)F
2. CCCCCCCCCCCCCC[P+](CCCCCC)(CCCCCC)CCCCCC.[Br-] [tetradecyltrihexylphosphonium bromide]

Result block:
1. 1049.3
2. 939

Hi, could you look up mass density for each item in my list?
1. CCCCCCCCCCCCCC[P+](CCCCCC)(CCCCCC)CCCCCC.N#C[N-]C#N [tetradecyl(trihexyl)phosphonium dicyanamide]
2. CCCCCCCCCCCCCC[P+](CCCCCC)(CCCCCC)CCCCCC.CS(=O)(=O)[O-] [trihexyltetradecylphosphonium methanesulfonate]
3. CCCCCCCCCCCCCC[P+](CCCCCC)(CCCCCC)CCCCCC.[Cl-] [trihexyl(tetradecyl)phosphonium chloride]

Result block:
[885.4, 914.6, 875.8]

----------
# particulars: 283.15 K; 10000 kPa; Liquid
parameter: mass density (kg/m3)
Answers are plain numbers, in kg/m3.

Recorded mass density, per entry:
molecule: CCCCCCCCCCCCCC[P+](CCCCCC)(CCCCCC)CCCCCC.CS(=O)(=O)[O-] [trihexyltetradecylphosphonium methanesulfonate]
parameter: mass density
result unit: kg/m3
experimental value: 943.1
--
molecule: CCCCCCCCCCCCCC[P+](CCCCCC)(CCCCCC)CCCCCC.[Cl-] [trihexyl(tetradecyl)phosphonium chloride]
parameter: mass density
result unit: kg/m3
experimental value: 903.1
--
molecule: CCCCCCCCCCCCCC[P+](CCCCCC)(CCCCCC)CCCCCC.N#C[N-]C#N [tetradecyl(trihexyl)phosphonium dicyanamide]
parameter: mass density
result unit: kg/m3
experimental value: 912.1
--
molecule: CCCCCCCCCCCCCC[P+](CCCCCC)(CCCCCC)CCCCCC.[Br-] [tetradecyltrihexylphosphonium bromide]
parameter: mass density
result unit: kg/m3
experimental value: 967.9

Query block: Fill blank: measured mass density of the molecule `CCCCCCCCCCCCCC[P+](CCCCCC)(CCCCCC)CCCCCC.O=S(=O)([N-]S(=O)(=O)C(F)(F)F)C(F)(F)F` is ____.
Result block: 1083
